- Protocol Description: AGP1-GFP expression modulators, hit retest, confirmation, cell-based, flow cytometry, S. cerevisiae, cherry picks (AID 2273);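 also: median GFP channel fluorescence over the whole cell population gate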
- Assay Conditions: S. cerevisiae AGP1-GFP strain, 3 h, at 10 µM
The source made the active and inactive calls.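 The calls were made as follows: active = GFP response above 150% of the DMSO level; inconclusive = fewer than 70 events counted for a yeast strain; inactive = the rest.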
Measurement Name: GFP response, % of DMSO

Challenge: Please indicate GFP response, % of DMSO recorded for COc1cccc(-c2nnc(NC(=O)c3ccc(S(=O)(=O)N4CCOCC4)cc3)o2)c1
Response given: 100% (inactive)

Challenge: Answer with reported GFP response, % of DMSO of O=C(NCC(=O)N1CCCC1)c1cccs1
Response given: 97.2% (inactive)

Challenge: Return GFP response, % of DMSO (reported value) for this molecule: O=C(Nc1nc(-c2ccccc2Cl)cs1)c1cccnc1
Response given: 89.1% (inactive)

Challenge: Name the recorded GFP response, % of DMSO of the item COc1ccccc1/C=C/C=N/NC(=O)c1cccs1 in your answer.
Response given: 100% (inactive)

----------
- System: anti-desmoglein-3 scFv antibody binding to human DSG3
- Protocol Description: inhibitors of anti-DSG3 scFv binding to DSG3, pilot screen, biochemical, validation compound set, bead-based, flow cytometry (AID 588368);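 also: signal is the median channel fluorescence of bead-bound GFP antibody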
- Assay Conditions: Protein G beads, DSG3-Fc, scFv-GFP binding, at 10 µM, hits give low values
For each of the molecules below, state its binding (% of control).
Provide only the numeric value, understood in %.

Challenge: Specify binding (% of control) for CC(=O)N=c1sc(S(N)(=O)=O)nn1C and stop.
Response given: 99.6

Challenge: Read off the recorded binding (% of control) for Nc1ccc2[nH]ncc2c1
Response given: 104

Challenge: Consider the molecule CN1CCc2cccc3c2[C@H]1Cc1ccc(O)c(O)c1-3 . State its measured binding (% of control).
Response given: 94.3

Challenge: Give the reported value of binding (% of control) for this record: O=C1C=CC(=O)C(C2=C3C(=O)N(CCc4ccccc4)CC(=O)N3CCC2)=C1
Response given: 101

Challenge: Kindly indicate its recorded binding (% of control). Item: COc1ccc(CCCC(=O)O)c(C)c1
Response given: 111

Challenge: Identify the reported binding (% of control) for the following entry. O=C(COc1ccccc1)N1CCN(c2ccccc2)CC1
Response given: 97.8

Challenge: Return the recorded binding (% of control) value; entry: CC(=O)OC[C@H]1O[C@@H](n2ncc(=O)[nH]c2=O)[C@H](OC(C)=O)[C@@H]1OC(C)=O
Response given: 109

Challenge: Return the recorded binding (% of control) value; entry: CC(NC(=O)c1ccc(OC2CCN(Cc3ccccn3)CC2)cc1)c1ccccc1 (configuration not stated)
Response given: 102

Challenge: Kindly indicate its recorded binding (% of control). Item: CCN(Cc1cnn(C)c1)Cc1nc(C(c2ccccc2)c2ccccc2)no1
Response given: 98.8

Challenge: Output binding (% of control) of Cn1c(=O)oc2cc(S(=O)(=O)N3CCc4ccccc4C3)ccc21
Response given: 98.3

Challenge: Quote binding (% of control) reported for O=C1OCCN1/N=C/c1ccc([N+](=O)[O-])o1 please.
Response given: 104

Challenge: Give the value of binding (% of control) reported for the following: NS(=O)(=O)c1cc2c(cc1Cl)NC(CSCc1ccccc1)=NS2(=O)=O
Response given: 103

Challenge: Answer with the recorded binding (% of control) for the molecule listed here: O=c1c2ccccc2nc2n1-c1ccccc1CCC2
Response given: 99.2

Challenge: # return recorded binding (% of control) for input CC(COc1ccccc1)NC(C)C(O)c1ccc(O)cc1 (configuration not stated)
Response given: 100

Challenge: Identify measured binding (% of control) corresponding to Cn1c2c(c(=O)[nH]c1=O)C(c1ccc(O)cc1)C1=C(N2)c2ccccc2C1=O (configuration not stated)
Response given: 96.9

Challenge: Note down binding (% of control) recorded for OC[C@@H](O)[C@@H](O[C@H]1O[C@H](CO)[C@@H](O)[C@H](O)[C@H]1O)[C@H](O)[C@@H](O)CO
Response given: 102

Challenge: Give the value of binding (% of control) reported for the following: O=C(c1ccc(O)cc1)c1ccc(O)cc1O
Response given: 96.9
